- assayed-target: DOR (hDOR-CHO) (Homo sapiens, UniProt P41143)
- Sequence (P41143 whole entry): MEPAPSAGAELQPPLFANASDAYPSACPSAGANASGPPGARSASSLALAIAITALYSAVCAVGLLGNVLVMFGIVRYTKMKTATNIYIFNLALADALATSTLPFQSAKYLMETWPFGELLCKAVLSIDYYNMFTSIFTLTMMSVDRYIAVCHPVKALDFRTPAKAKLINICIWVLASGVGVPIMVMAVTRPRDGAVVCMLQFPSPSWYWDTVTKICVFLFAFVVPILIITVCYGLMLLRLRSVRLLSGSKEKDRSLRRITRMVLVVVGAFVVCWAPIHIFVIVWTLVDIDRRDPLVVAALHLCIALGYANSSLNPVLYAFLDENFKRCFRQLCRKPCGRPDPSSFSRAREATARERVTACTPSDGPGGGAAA
experimental-readout: Ki (nM)
Answers are plain numbers, in nM.

Ki in this record for C=C[C@H]1[C@H]2CCC[C@]1(c1cccc(C(N)=O)c1)CCN2CCc1ccccc1 [compound 5] : 237

----------
- assay-procedure: Multi-point microsome stability assay, human
- Format: in vitro ADME
- study-conditions: both, human microsomal fractions, pH 7.4
experimental-readout: half-life at 1 μM (min)
Give bare numbers, in min.

Solved entries (count: 2):
C=C[C@H]1[C@H]2CCC[C@]1(c1cccc(C(N)=O)c1)CCN2CCc1ccccc1; 40.4
C=C[C@H]1[C@H]2CCC[C@]1(c1cccc(O)c1)CCN2CCc1ccc(O)cc1; 88.1

Can you give me half-life at 1 μM for all of these, one by one?
1. C=C[C@H]1[C@H]2CCC[C@]1(c1cccc(O)c1)CCN2CCc1cccs1
2. C=C[C@H]1[C@H]2CCC[C@]1(c1cccc(O)c1)CCN2CCc1ccc([N+](=O)[O-])cc1
3. C=C[C@H]1[C@H]2CCC[C@]1(c1cccc(O)c1)CCN2CCc1ccccc1 [DC-1–76.2, reference compound]

Result:
8.21
16.8
12
